Listing of recorded max response by entry.
System: KB-3-1
Experiment: Cytotoxic Profiling of Annotated Libraries Using Quantitative High-Throughput Screening (AID 1296008); also: % is scaled to controls: 0 for no effect and ±100 for the full control effect
Conditions: Five cell lines viability, CellTiter-Glo ATP luminescence, 48-72 h, stronger effect = lower value
Records with an inconclusive call do not appear.
Give the number; % is assumed, so skip it.

CC(C)NC[C@@H](O)COc1ccc(CC(N)=O)cc1 : 3.62

Request: Under KB-3-1: max response value of `CCS(=O)(=O)CCn1c([N+](=O)[O-])cnc1C` ?
Response: -0.735

Request: Under KB-3-1: max response value of `O=C(NCCCN1CCOCC1)c1ccc(Cl)cc1` ?
Response: 1.85

Request: Under KB-3-1: max response value of `CC1(C)S[C@@H]2[C@H](N=CN3CCCCCC3)C(=O)N2[C@H]1C(=O)O` ?
Response: -4.82
